# Test system: A/WSN/33(H1N1) virus
# METHOD NOTES: microbe, parasite or virus in culture
# Type: cell-based, influenza A virus
# CONDITION CONTEXT: Influenza A virus, H1N1|WSN, MDCK, read-out: %-inhibition in viral yield reduction assay screening
Each entry gets f if its inhibition at 100 µM stays under 20%, and t if its inhibition at 100 µM is 20% or above.

Record excerpt, results attached:
[
  {
    "MOLECULE": "O=C(CNCc1ccccc1)Nc1ccccc1C(=O)NCc1cccc2cn[nH]c12 [Compound 7]",
    "CAT": "f"
  },
  {
    "MOLECULE": "Cc1ccc(NCC(=O)Nc2ccccc2C(=O)NCc2cccc3cn[nH]c23)cc1 [Compound 2]",
    "CAT": "f"
  },
  {
    "MOLECULE": "S=C(NCc1cccc2cn[nH]c12)Nc1cccc(Cl)c1 [Compound 21]",
    "CAT": "t"
  }
]

-- ask I'd appreciate it if you could say whether COc1ccc(NC(=S)NCc2cccc3cn[nH]c23)cc1OC [Compound 24] has inhibition at 100 µM at least equal to 20%.
-- reply t

-- ask I'd appreciate it if you could say whether S=C(NCc1cccc2cn[nH]c12)Nc1ccc(Cl)cc1 [Compound 22] has inhibition at 100 µM at least equal to 20%.
-- reply f

-- ask # check: inhibition at 100 µM of FC(F)(F)Oc1ccc(NC(=S)NCc2cccc3cn[nH]c23)cc1 [Compound 26] is greater than or equal to 20%
-- reply f

-- ask Quick check, inhibition at 100 µM >= 20%? O=C(/C=C/c1ccc([N+](=O)[O-])cc1)NCc1cccc2cn[nH]c12 [Compound 12]
-- reply t

-- ask Hi, just wondering whether O=C(/C=C/c1ccc(Cl)cc1)NCc1cccc2cn[nH]c12 [Compound 10] shows inhibition at 100 µM of 20% or higher.
-- reply f

###

# ASSAYED SYSTEM: H1 polymerase (Influenza A virus, UniProt P15659)
# METHOD NOTES: cell-based
# CONDITION CONTEXT: EC50 minigenome luciferase reporter assay
ENDPOINT: EC50 (nM)
Value expressed in nM; do not type the unit.

-- ask For H1 polymerase (Influenza A virus, UniProt P15659), provide EC50 of NC(=O)c1nc(F)c[nH]c1=O [favipiravir, reference compound] please.
-- reply 441

###

The following compounds are listed with their measured inhibition at 100 µM values.
# System: A/WSN/33(H1N1) virus
# METHOD NOTES: microbe, parasite or virus in culture
# Type: cell-based, influenza A virus
# CONDITION CONTEXT: Influenza A virus, H1N1|WSN, MDCK, read-out: %-inhibition in viral yield reduction assay screening

[
  {
    "SMILES TEXT": "O=C(CN1CCSCC1)Nc1ccccc1C(=O)NCc1cccc2cn[nH]c12",
    "ASSAYED SYSTEM": "A/WSN/33(H1N1) virus",
    "inhibition at 100 µM": "< 2%"
  },
  {
    "SMILES TEXT": "Cc1cccc(NCC(=O)Nc2ccccc2C(=O)NCc2cccc3cn[nH]c23)c1",
    "ASSAYED SYSTEM": "A/WSN/33(H1N1) virus",
    "inhibition at 100 µM": "18.6%"
  }
]

-- ask What value of inhibition at 100 µM has been reported for the following compound? "O=C(CNC1CCCCC1)Nc1ccccc1C(=O)NCc1cccc2cn[nH]c12"
-- reply < 2%

-- ask I'd like to know its inhibition at 100 µM. The compound in question is "S=C(NCc1cccc2cn[nH]c12)Nc1ccc(I)cc1"
-- reply 74.4%

-- ask Need inhibition at 100 µM of "O=C(/C=C/c1ccc(Br)cc1)NCc1cccc2cn[nH]c12" , thanks.
-- reply < 2%

-- ask Which measured inhibition at 100 µM value corresponds to "Cc1ccc(NC(=S)NCc2cccc3cn[nH]c23)cc1" ?
-- reply < 2%

-- ask Please give the measured inhibition at 100 µM for this compound: "FC(F)(F)c1ccc(NC(=S)NCc2cccc3cn[nH]c23)cc1"
-- reply > 90%

-- ask Fill in: inhibition at 100 µM of "O=C(CN1CCOCC1)Nc1ccccc1C(=O)NCc1cccc2cn[nH]c12" is ___
-- reply < 2%

-- ask Which inhibition at 100 µM is listed for "COc1ccc(/C=C/C(=O)NCc2cccc3cn[nH]c23)cc1" ?
-- reply 48.4%

-- ask Entry under review: "O=C(/C=C/c1ccc(F)cc1)NCc1cccc2cn[nH]c12" . Reported inhibition at 100 µM?
-- reply 30.5%

-- ask Need inhibition at 100 µM, item "O=C(/C=C/c1ccncc1)NCc1cccc2cn[nH]c12"
-- reply 48.2%

-- ask Can you share its inhibition at 100 µM? I mean this compound: "O=C(CNc1ccc(Cl)cc1)Nc1ccccc1C(=O)NCc1cccc2cn[nH]c12"
-- reply < 2%

-- ask Report inhibition at 100 µM for "O=C(/C=C/c1ccc(C(F)(F)F)cc1)NCc1cccc2cn[nH]c12" please.
-- reply < 2%

-- ask Sample "Fc1ccc(NC(=S)NCc2cccc3cn[nH]c23)cc1" — what was its inhibition at 100 µM?
-- reply < 2%

-- ask Could you share which inhibition at 100 µM value was measured for "S=C(NCc1ccccc1)NCc1cccc2cn[nH]c12" ?
-- reply < 2%

-- ask Quick one: inhibition at 100 µM for "O=C(/C=C/c1cccs1)NCc1cccc2cn[nH]c12" ?
-- reply < 2%

-- ask # query: inhibition at 100 µM of entry "O=C(/C=C/c1ccc(F)c(F)c1)NCc1cccc2cn[nH]c12"
-- reply 44.1%

-- ask Fill in the blank: the reported inhibition at 100 µM of "S=C(NCc1cccc2cn[nH]c12)Nc1ccc(Br)cc1" is ____.
-- reply < 2%

-- ask Would you mind telling me what inhibition at 100 µM value was observed for "Cc1ccccc1NCC(=O)Nc1ccccc1C(=O)NCc1cccc2cn[nH]c12" ?
-- reply 25%

###

Entries and their pEC50 values follow.
# System: A/WSN/33(H1N1) virus
# METHOD NOTES: microbe, parasite or virus in culture
# Assay type: cell-based, influenza A virus
# CONDITION CONTEXT: read-out: EC50 viral yield assay
Conceptually, pEC50 converts a concentration in mol/L into minus its log10.

Some solved cases for reference:
[
  {
    "COMPOUND": "NC(=O)c1nc(F)c[nH]c1=O [favipiravir, reference compound]",
    "ASSAYED SYSTEM": "A/WSN/33(H1N1) virus",
    "pEC50": 5.80
  },
  {
    "COMPOUND": "FC(F)(F)c1ccc(NC(=S)NCc2cccc3cn[nH]c23)cc1",
    "ASSAYED SYSTEM": "A/WSN/33(H1N1) virus",
    "pEC50": 5.10
  },
  {
    "COMPOUND": "COC(=O)OCOc1c2n(ccc1=O)N([C@@H]1c3ccccc3SCc3c1ccc(F)c3F)[C@@H]1COCCN1C2=O [baloxavir marboxil, reference compound]",
    "ASSAYED SYSTEM": "A/WSN/33(H1N1) virus",
    "pEC50": 9.02
  }
]

Next, consider the following compound.
-- ask Record request: pEC50 value, item "N#Cc1ccc(NC(=S)NCc2cccc3cn[nH]c23)cc1"
-- reply 4.84

###

Recorded CC50 by entry
# METHOD NOTES: in vitro
# CONDITION CONTEXT: dog

[
  {
    "COMPOUND": "Cc1ccc(NC(=S)NCc2cccc3cn[nH]c23)cc1 [Compound 20]",
    "CC50": "> 100 µM"
  },
  {
    "COMPOUND": "N#Cc1ccc(NC(=S)NCc2cccc3cn[nH]c23)cc1 [Compound 31]",
    "CC50": "> 25 µM"
  },
  {
    "COMPOUND": "O=C(/C=C/c1cccs1)NCc1cccc2cn[nH]c12 [Compound 18]",
    "CC50": "> 100 µM"
  }
]

-- ask Item under review: S=C(NCc1ccccc1)NCc1cccc2cn[nH]c12 [Compound 28] . Reported CC50?
-- reply > 100 µM

-- ask Requested field: CC50. Item: Cc1ccccc1NCC(=O)Nc1ccccc1C(=O)NCc1cccc2cn[nH]c12 [Compound 1]
-- reply > 100 µM

-- ask Query (compound): O=C(CN1CCOCC1)Nc1ccccc1C(=O)NCc1cccc2cn[nH]c12 [Compound 8] ; field requested: CC50
-- reply > 100 µM

###

# Tested on: A/WSN/33(H1N1) virus
# METHOD NOTES: microbe, parasite or virus in culture
# Assay type: cell-based, influenza A virus
# CONDITION CONTEXT: Influenza A virus, H1N1|WSN, MDCK, read-out: %-inhibition in viral yield reduction assay screening
ENDPOINT: inhibition at 100 µM (%)
Give just the numeric value; % need not be written.

-- ask Name the recorded inhibition at 100 µM for "O=C(/C=C/c1ccco1)NCc1cccc2cn[nH]c12" .
-- reply 33.9

-- ask Please report the recorded inhibition at 100 µM for "S=C(NCc1cccc2cn[nH]c12)Nc1ccccc1" .
-- reply 25
